# PROTOCOL: Half life in Sprague-Dawley rat at 2 mg/kg,iv by LC/MS/MS analysis
# Type: ADME, organism-based
# CONDITIONS USED: Sprague-Dawley, in vivo
MEASURED METRIC: half-life (h)
The answer is to be given in h; state only the numeric part.

Read the entry CNC(=O)c1c(-c2ccc(F)cc2)oc2ccc(-c3cc(C(=O)NC4(c5ncccn5)CC4)ccc3C)c(F)c12 and write its reported half-life.
4.7

* * *

# SYSTEM UNDER TEST: Voltage-gated inwardly rectifying potassium channel KCNH2 (Homo sapiens, UniProt Q12809)
# Sequence (Q12809 whole entry): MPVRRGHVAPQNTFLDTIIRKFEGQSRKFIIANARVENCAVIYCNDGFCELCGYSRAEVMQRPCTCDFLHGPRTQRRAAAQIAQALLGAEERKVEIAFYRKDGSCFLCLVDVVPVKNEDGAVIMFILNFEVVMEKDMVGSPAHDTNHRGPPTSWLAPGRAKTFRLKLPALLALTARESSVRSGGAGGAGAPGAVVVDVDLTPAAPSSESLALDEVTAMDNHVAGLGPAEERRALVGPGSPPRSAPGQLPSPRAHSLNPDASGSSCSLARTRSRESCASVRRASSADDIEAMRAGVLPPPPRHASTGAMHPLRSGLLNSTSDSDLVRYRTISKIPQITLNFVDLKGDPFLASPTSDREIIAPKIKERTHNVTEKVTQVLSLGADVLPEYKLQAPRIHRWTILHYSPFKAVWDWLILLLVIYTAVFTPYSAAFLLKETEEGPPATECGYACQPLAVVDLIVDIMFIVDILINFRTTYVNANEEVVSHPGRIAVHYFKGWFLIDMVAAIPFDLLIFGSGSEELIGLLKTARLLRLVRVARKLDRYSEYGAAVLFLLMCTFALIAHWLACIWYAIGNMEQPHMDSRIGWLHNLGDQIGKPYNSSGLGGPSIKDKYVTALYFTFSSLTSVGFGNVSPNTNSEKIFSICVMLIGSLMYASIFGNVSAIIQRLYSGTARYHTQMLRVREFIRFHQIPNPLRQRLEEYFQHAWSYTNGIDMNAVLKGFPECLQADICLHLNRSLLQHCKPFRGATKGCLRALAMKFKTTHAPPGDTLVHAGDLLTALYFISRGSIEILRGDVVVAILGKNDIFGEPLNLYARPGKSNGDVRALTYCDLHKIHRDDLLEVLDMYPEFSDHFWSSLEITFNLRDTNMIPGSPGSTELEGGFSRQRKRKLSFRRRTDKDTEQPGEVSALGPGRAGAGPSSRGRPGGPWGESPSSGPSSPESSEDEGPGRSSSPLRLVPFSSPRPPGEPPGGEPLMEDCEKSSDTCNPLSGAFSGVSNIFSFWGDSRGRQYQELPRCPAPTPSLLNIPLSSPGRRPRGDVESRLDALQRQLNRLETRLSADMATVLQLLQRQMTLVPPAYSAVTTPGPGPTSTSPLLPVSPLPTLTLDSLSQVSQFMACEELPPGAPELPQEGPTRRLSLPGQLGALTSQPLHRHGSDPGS
# PROTOCOL: Inhibition of human ERG by patch clamp assay
MEASURED METRIC: IC50 (µM)
The answer is to be given in µM; state only the numeric part.

Read the entry CNC(=O)c1c(-c2ccc(F)cc2)oc2ccc(-c3cc(C(=O)NC4(c5ncccn5)CC4)ccc3C)c(F)c12 [BMS-929075] and write its reported IC50.
18

* * *

# PROTOCOL: Effective permeability across apical to basolateral side in human Caco2 cells
# Type: ADME, cell-based
# CONDITIONS USED: Caco-2, read-out: Peff
MEASURED METRIC: Papp A→B

Read the entry CNC(=O)c1c(-c2ccc(F)cc2)oc2ccc(-c3cc(C(=O)NC4(c5ncccn5)CC4)ccc3C)c(F)c12 [BMS-929075] and write its reported Papp A→B.
> 10 ×10⁻⁶ cm/s

* * *

# PROTOCOL: Half life in human liver microsomes
# Format: ADME, microsome
MEASURED METRIC: half-life (h)
The answer is to be given in h; state only the numeric part.

Read the entry CNC(=O)c1c(-c2ccc(F)cc2)oc2ccc(-c3cc(C(=O)NC4(c5ccccc5)CC4)ccc3C)cc12 and write its reported half-life.
0.183

Proceeding to the next compound to report its half-life.
Read the entry CNC(=O)c1c(-c2ccc(F)cc2)oc2ccc(-c3cc(C(=O)NC4(c5ccccn5)CC4)ccc3C)cc12 and write its reported half-life.
1.8

* * *

# PROTOCOL: Metabolic stability in rat liver microsomes assessed as parent compound remaining after 10 mins
# Assay type: ADME, microsome
# CONDITIONS USED: read-out: Stability
Reported remaining at 10 min values are given for each entry in this list.
The answer is to be given in %; state only the numeric part.

Some solved entries appear below for comparison.
Read the entry CNC(=O)c1c(-c2ccc(F)cc2)oc2ccc(-c3cc(C(=O)NC4(c5ccccn5)CC4)ccc3C)cc12 and write its reported remaining at 10 min.
82

Read the entry CNC(=O)c1c(-c2ccc(F)cc2)oc2ccc(-c3cc(C(=O)NC4(c5ccncc5)CC4)ccc3C)cc12 and write its reported remaining at 10 min.
11

Read the entry CNC(=O)c1c(-c2ccc(F)cc2)oc2ccc(-c3cc(C(=O)NC4(c5ccccc5)CC4)ccc3C)cc12 and write its reported remaining at 10 min.
39

Others:
Read the entry CNC(=O)c1c(-c2ccc(F)cc2)oc2ccc(-c3cc(C(=O)NC4(c5cccnc5)CC4)ccc3C)cc12 and write its reported remaining at 10 min.
0.6

* * *

# PROTOCOL: Protein binding in dog serum
# Type: ADME, cell-free, Canis lupus familiaris
# CONDITIONS USED: read-out: PB (converted)
MEASURED METRIC: fraction unbound

Read the entry CNC(=O)c1c(-c2ccc(F)cc2)oc2ccc(-c3cc(C(=O)NC4(c5ncccn5)CC4)ccc3C)c(F)c12 [BMS-929075] and write its reported fraction unbound.
0.019
